This section presents compounds with their documented activation values.
molecular target: G-protein coupled receptor 151 (Homo sapiens); experiment: activators of human GPR151, primary screen, cell-based, PathHunter beta-arrestin, luminescence (AID 1508602); conditions: PathHunter beta-arrestin GPR151 cells, at 11.2 µM, stronger effect = higher value;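 also: 0% = median of compound wells and 100% = cells with positive control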
In all, about 650,000 compounds went through this assay and about 6,800 (1%) were called active. The entries come from a sample that favours actives as a whole.
reported-endpoint: activation

> print(dat)
                                    compound  reported.endpoint         assay.value
 1  CCCCOC(=O)C1=C(C)NC2=C(C(=O)CCC2)C1c1cccc([N+](=O)[O-])c1 (stereo not given)         activation      6.33% (active)
 2  CCOC(=O)C1=C(C)N=c2s/c(=C\c3ccc(OC)c(Br)c3)c(=O)n2C1c1ccc2c(c1)OCO2 (stereo not given)         activation    3.22% (inactive)
 3  COc1ccc(N2C(=O)C(Cl)=C(Nc3ccc(C)cc3)C2=O)cc1         activation      5.51% (active)
 4   NC(=O)C1CCN(C(=O)c2ccc(C(F)(F)F)cc2)CC1         activation  -0.735% (inactive)
 5  CCOC(=O)C1=C(C)N(c2ccc(C)cc2)C(=O)/C1=C\c1ccc(OC)cc1         activation  -0.542% (inactive)
 6      CCOCCCNC(=O)NC1CCN(c2nc3ccccc3s2)CC1         activation      5.41% (active)
 7  N#Cc1ccc(C(=O)OCC(=O)Nc2ccc3[nH]c(=O)[nH]c3c2)cc1         activation   0.615% (inactive)
 8  O=C(Nc1cccc(N2CCC(NCc3ccon3)CC2)c1)c1cccnc1         activation      5.91% (active)
 9  Cc1ccc(CS(=O)(=O)CC2Nc3ccc(C(=O)NC4CCCC4)cc3NC2=O)cc1 (stereo not given)         activation  -0.216% (inactive)
10  O=C(CSc1nnc(NC(=O)CCc2ccccc2)s1)NCc1ccc(F)cc1         activation   -2.57% (inactive)

---

molecular target: G-protein coupled receptor 151 (Homo sapiens) (UniProt Q8TDV0); experiment: activators of human GPR151, primary screen, cell-based, PathHunter beta-arrestin, luminescence (AID 1508602); conditions: PathHunter beta-arrestin GPR151 cells, at 11.2 µM, stronger effect = higher value;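 also: 0% = median of compound wells and 100% = cells with positive control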
Sequence (Q8TDV0 whole entry, looked up): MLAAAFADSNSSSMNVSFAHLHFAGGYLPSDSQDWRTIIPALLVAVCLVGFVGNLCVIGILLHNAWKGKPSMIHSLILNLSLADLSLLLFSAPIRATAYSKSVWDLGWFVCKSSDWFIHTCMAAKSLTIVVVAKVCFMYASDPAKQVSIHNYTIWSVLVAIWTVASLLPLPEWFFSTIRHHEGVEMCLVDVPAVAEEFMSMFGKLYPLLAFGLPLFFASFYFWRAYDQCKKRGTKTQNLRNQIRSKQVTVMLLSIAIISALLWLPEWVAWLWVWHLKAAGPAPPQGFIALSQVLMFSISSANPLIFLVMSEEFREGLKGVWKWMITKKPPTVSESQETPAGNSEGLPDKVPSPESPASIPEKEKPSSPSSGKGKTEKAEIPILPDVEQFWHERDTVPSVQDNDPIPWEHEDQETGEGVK
Screen size: about 650,000 compounds; about 6,800 (1%) were called active. The list comes from a sample in which actives are over-represented; it also holds close analogues and randomly drawn compounds.
reported-endpoint: activation (%)

> print(dat)
                                    compound  reported.endpoint  result.units  assay.value
 1  COc1cccc2c1OCC(CN1CCN(C3CCCCC3)C(CCO)C1)=C2 (stereo unspecified)         activation             %         2.61
 2          CCCc1cc(=O)[nH]c(Nc2cccc(O)c2)n1         activation             %        0.777
 3  COc1ccc2nc(/C(C#N)=C\c3c[nH]c4ccccc34)[nH]c2c1         activation             %       -0.394
 4  CSc1nc2sccn2c(=O)c1C(=O)NC(C)CO (stereo unspecified)         activation             %       -0.408
 5   COc1ccc(C(=O)Nc2sc3c(c2C(N)=O)CCCC3)cc1         activation             %         5.12
 6  COc1ccc(/C=N/NC(=O)CN(C)C(=O)c2ccccc2)cc1         activation             %        -1.44
 7  COc1ccc2nc(/C(C#N)=C\c3cc4c(cc3OC)OCO4)[nH]c2c1         activation             %         5.68
 8  COc1cccc(/C=N/NC(=O)CC23CC4CC(CC(C4)C2)C3)c1O         activation             %        0.719
 9  CCSc1nc2sccn2c(=O)c1C(=O)NC(Cc1ccccn1)C(F)(F)F (stereo unspecified)         activation             %         4.95
10  NC(=O)c1c(NC(=O)c2ccc(Oc3ccccc3)cc2)sc2c1CCCCC2         activation             %       -0.921
11  COc1cc2c(cc1/C=C(\C#N)c1nc3ccccc3[nH]1)OCO2         activation             %        0.566

---

molecular target: G-protein coupled receptor 151 (Homo sapiens); experiment: activators of human GPR151, primary screen, cell-based, PathHunter beta-arrestin, luminescence (AID 1508602); details: PathHunter beta-arrestin GPR151 cells, at 11.2 µM;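 also: 0% = median of compound wells and 100% = cells with positive control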
In all, about 650,000 compounds went through this assay and about 6,800 (1%) were called active. Rule as the data show it: active = activation above about 4.9%; inactive = the rest. The sample holds actives, similar compounds and a random draw of the others, so the mix is not that of the screen.
Outcomes: 1 for active, 0 for inactive

> print(dat)
                                    molecule  category.label
 1  Cc1ccc(NC(=O)CSc2nnc(-c3ccc(O)cc3)n2C)cc1N               0
 2  Cc1nn(-c2ccccc2)c(C)c1/C=N/n1c(=S)[nH]nc(C)c1=O               0
 3  CC(O)CNc1ncnc2c1c(-c1ccccc1)cn2-c1ccc(Cl)cc1 (stereo not given)               0
 4     CCC(=O)Nc1c(C(=O)Nc2ccccc2)oc2ccccc12               0
 5  Cc1ccc(NC(=O)CSc2nnc(-c3ccc(N)cc3)n2C)cc1Cl               1
 6  COc1cc(-c2coc3cc(O[C@@H]4O[C@H](CO)[C@@H](O)[C@H](O)[C@H]4O)c(OC)c(O)c3c2=O)cc(O)c1OC               1
 7  Cc1c(Cl)cccc1-n1c(/C=C/c2cccc3ccccc23)nc2ccccc2c1=O               0
 8  CCc1cc2c(=O)c(-c3ccc4c(c3)OCO4)c(C)oc2cc1OC1OC(CO)C(O)C(O)C1O (stereo not given)               0
 9  Cc1ccc2oc(-c3cccc(NC(=O)c4ccc(F)cc4)c3)nc2c1               0
10  COc1cccc(-c2ccccc2NC(=O)C2CCN(C3CCOCC3)CC2)c1               0

---

target: G-protein coupled receptor 151 (Homo sapiens); test: activators of human GPR151, primary screen, cell-based, PathHunter beta-arrestin, luminescence (AID 1508602); conditions: PathHunter beta-arrestin GPR151 cells, at 11.2 µM, stronger effect = higher value;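 also: 0% = median of compound wells and 100% = cells with positive control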
In all, about 650,000 compounds went through this assay and about 6,800 (1%) were called active. Many of the other results were omitted from the sample, so actives are more common in it than they were.
reported-endpoint: activation (%)

> print(dat)
                                    compound                               target.desc  assay.value
 1  O=C(CCn1cnc2c(cnn2-c2ccc(F)cc2)c1=O)NCCC1=CCCCC1  G-protein coupled receptor 151 (Homo sapiens)         7.05
 2  CC(=O)c1cccc(-c2cc(C(=O)Nc3ccc(N4CCOCC4)cc3)ccn2)c1  G-protein coupled receptor 151 (Homo sapiens)         1.66
 3                COCCNCCOc1ccc(C(C)(C)C)cc1  G-protein coupled receptor 151 (Homo sapiens)         8.42
 4  CC(Oc1cccc(Cl)c1)C(=O)O/N=C(\N)c1ccncc1 (stereo not given)  G-protein coupled receptor 151 (Homo sapiens)       -0.652
 5  COc1ccccc1NC(=O)c1sc2ncn(Cc3cccc(Br)c3)c(=O)c2c1C  G-protein coupled receptor 151 (Homo sapiens)        -1.06
 6  CCOC(=O)C1(Cc2cccc(OC)c2)CCCN(C(=O)COc2ccccc2OC)C1 (stereo not given)  G-protein coupled receptor 151 (Homo sapiens)         2.47
 7  CCOC(=O)c1c(NC(=O)c2nn3c(C(F)(F)F)cc(-c4ccc(OC)cc4)nc3c2Cl)sc2c1CCCC2  G-protein coupled receptor 151 (Homo sapiens)       0.0805
 8  COc1ccc2c(Cl)c(C(=O)Nc3ccc(N(C)C(C)=O)cc3)sc2c1  G-protein coupled receptor 151 (Homo sapiens)        0.165
 9  O=C(Cn1cnc2c(cnn2-c2ccc(F)cc2)c1=O)NCCc1ccccc1  G-protein coupled receptor 151 (Homo sapiens)        0.508
10             COC(=O)NCCOc1ccc(C(C)(C)C)cc1  G-protein coupled receptor 151 (Homo sapiens)        0.726

---

biological target: G-protein coupled receptor 151 (Homo sapiens); assay: activators of human GPR151, primary screen, cell-based, PathHunter beta-arrestin, luminescence (AID 1508602); conditions: PathHunter beta-arrestin GPR151 cells, at 11.2 µM, stronger effect = higher value;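 also: 0% = median of compound wells and 100% = cells with positive control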
In all, about 650,000 compounds went through this assay and about 6,800 (1%) were called active. The sample holds actives, similar compounds and a random draw of the others, so the mix is not that of the screen.
reported-endpoint: activation (%)

> print(dat)
                                   molecule  reported.endpoint  assay.value
1  CCC(=O)Nc1cc(-c2ccco2)nn1-c1nc(CC)cc(=O)[nH]1         activation       -0.772
2  CCOC(=O)CCC(=O)OC(C(=O)c1ccccc1)c1ccccc1 (stereo not given)         activation        0.912
3  CCOc1ccc(/C=C2N=C(/C=C\c3cccc([N+](=O)[O-])c3)OC/2=O)cc1         activation        -1.22
4  O=C1OC(/C=C/c2cccc(Cl)c2Cl)=NC/1=C\c1cccc([N+](=O)[O-])c1         activation        0.433
5  COc1cc(/C=C2/NC(=O)N(Cc3ccc(Br)cc3)C2=O)ccc1O         activation       -0.481
